Where do the numbers come from? From patent US20060229299A1.

# System: 5-HT2C receptor relative to 5-HT2A and D2 receptors
# ASSAY: Relative 5-HT2C affinity (formula I, sum of 5-HT2C/5-HT2A and 5-HT2C/D2 affinity ratios)
# PARTICULARS: Table 2; sum of affinity ratios from data of Table 1
MEASUREMENT_NAME: (2C/2A) + (2C/D2)

COMPOUND: CN1CCN(CC/C=C2/c3ccccc3Sc3ccc(S(=O)(=O)N(C)C)cc32)CC1
REPORTED: 1.43
//
COMPOUND: O=C1NCN(c2ccccc2)C12CCN(CCCC(c1ccc(F)cc1)c1ccc(F)cc1)CC2
REPORTED: 1.33
//
COMPOUND: Cc1nc2sccn2c(=O)c1CCN1CCC(=C(c2ccc(F)cc2)c2ccc(F)cc2)CC1
REPORTED: 2.15
//
COMPOUND: NC(=O)C1(N2CCCCC2)CCN(CCCC(=O)c2ccc(F)cc2)CC1
REPORTED: 1.83
//
COMPOUND: CCNC(=O)N1CCN(CCCC(c2ccc(F)cc2)c2ccc(F)cc2)CC1 [Amperozide]
REPORTED: 1.67
//
COMPOUND: CN1CC2c3ccccc3Oc3ccc(Cl)cc3C2C1 (stereo not drawn)
REPORTED: 2.15
//
COMPOUND: CN1CCN(C2=Nc3cc(F)ccc3Cc3ccccc32)CC1
REPORTED: 2.13
//
COMPOUND: COc1cc(C(C)=O)ccc1OCCCN1CCC(c2noc3cc(F)ccc23)CC1
REPORTED: 1.79
//
COMPOUND: CN(C)CCOC1=Cc2ccccc2Sc2ccc(Cl)cc21 [Zotepine]
REPORTED: 2.02
